Test system: MS2 coat protein
Experiment: apparent KD of MS2 coat protein, switch OFF state (with FMN for OFF switches, without FMN for ON switches); designed switch direction (-1 OFF switch, 1 ON switch): -1; higher = weaker reporter binding
Recorded conditions: FMN input: 0 or 200 uM; Eterna round: R93 (includes R88 designs)
For each of the sequences below, state its apparent KD of MS2 coat protein.
Give bare numbers, in nM.

AGAUAGUCAGGAUAUACGAAAAUGUAAAAAGAAGUGAAGGGACAUGAGGAUCACCCAUGUAGAAGGGACUAGAA [74%, Web mod - With 5 less C's]; 86.6
AAAAAGGCAGGAUAUACGAACAUGUCGAAAGACGUGAAGGGACAUGAGGAUCACCCAUGUAGAAGGGUCAAGAA [Mat - Exclusion 2 - JL mod - D76]; 91.9
GAAAAUGGAGGAUAUACGUACAUGUCAAAAGACGUGAAGGGACAUGAGGAUCACCCAUGUAGAAGGCUAAAAAG [Mat - Exclusion 2 - JL mod - D96]; 15.4
AAAAAACAUGAGGAUCACCCAUGUGAGGAUAUGCUAUGGAAAAUAAAAAUAAAACAUAGCAGAAGGCACACCAA [Denovo 16]; 37.4
GAAAAGGAAGGAUAUACAAAGGGACCUUAUAAAAGAAGAAGACAUGAGGAUCACCCAUGUAGAAGGUCCAGAUA [Diusanatra]; 19.6
GAAACUGGAGGAUAUACGUACAUGUCAAAAGACGUGAAGGGACAUGAGGAUCACCCAUGUAGAAGGCUAGAAAG [Mat - Exclusion 2 - JL mod - D97]; 21.9
AAGAAGUGAGGAUAUCGUGCUCGUCACAAAAGUGAUGAGUACGAGAAGGCACAUGAGGAUCACCCAUGUAAAGA [Opal 36]; 52.6
AAAGCGGCAGGAUAUACAGGAACAAAAGUAUGUGCAUCCGCACAUGAGGAUCACCCAUGUAGAAGGGCUAAUAA [Ontiti]; 270

Okay, here is my list. What is apparent KD of MS2 coat protein for each of these?
1. AGAAAGUCAGGAUAUACGAAUAAGAAAAAAGACGAGAACGGACAUGAGGAUCACCCAUGUAGAAGGGACAAGAA [Diamond 15]
2. AGGGUACAUGAGGAUCACCCAUGUUAGGAUAUACAAAAGAAAAGAAAAGAAAGAAGAAGUAGAAGGGACAAGAA [Teti]

Return:
[40.6, 59.1]

====

System: MS2 coat protein
Experiment: apparent KD of MS2 coat protein; designed switch direction (-1 OFF switch, 1 ON switch): 1; higher = weaker reporter binding
Recorded conditions: input ligand: none
Provide the recorded apparent KD of MS2 coat protein for the entries that follow.

CCAUAACGGUGAGGAUAUCGUUGCGAUAAGUGACGAGAAGGCAUUCAUGUGAAAUAAACAUACAUGAGGAUCACCCAUGUUGUA [Omei SS(NG)1 Bv1] (Eterna round: R96, puzzle: Same State NG 1); 57.7 nM
GAGAGAUGAUUAGGAUAUUCGGUGAUAAUGAUAGAAGAAGGAAUUGACAUGAGGAUCACCCAUGUGGGAAUAAUCCAGAGAGAG [Parity 21 - Jieux - Same State NG 1] (Eterna round: R96, puzzle: Same State NG 1); 161 nM
GUAGCAUACCGAGGAUAUUCAUAUAAUAUUACAUGAGGAUCACCCAUGUAUAGGCGAAAGCCUUGGGAGAAGGCGGAAUGCUAC [Xeonanis - 20 Mod61] (Eterna round: R96, puzzle: Same State NG 2); 28.6 nM
GGAGCCGGCACCGAGGAUAUUCAUAUUAAAACAUGAGGAUCACCCAUGUACCGCAGAAGCGGUUGGGAGAAGGCGGAUCGGCUCG [Xeonanis - 23] (Eterna round: R96, puzzle: Same State 2); 534 nM
UAUUUAAUCGUAGGAUAUAGAGUGAAAUUUGUACUAGAAGGACGUAACAUGAGGAUCACCCAUGUGGUAAGUGGGACAUAGUAU [JR_SSNG1_Sub037] (Eterna round: R96, puzzle: Same State NG 1); 39.7 nM

// each sequence listed below needs its apparent KD of MS2 coat protein
1. GAGGGACAGACCAACAUGAGGAUCACCCAUGUCCUCGCAGGUCAGGAUAUUAUUAGGAUCACCAGUGAGAAGGGACGGUGAACC (Eterna round: R96, puzzle: Same State NG 3)
2. ACUUAGUACAAUUUAGAUCUACAUGAGGAUCACCCAUGUACUGAGGAUAUCAGCUCGAAUAGAGCUGAGAAGGCAGUAGUACUA [SSNG3/9-A1] (Eterna round: R96, puzzle: Same State NG 3)
3. UGGCUCAGACGAGGAUAUAUGUGGUCACAUGAGGAUCACCCAUGUCUCGAGCUUCGGCUCGAGGCAUAGAAGGCGUCUGAGCCA [SSNG2/5-A2] (Eterna round: R96, puzzle: Same State NG 2)
4. GUAGCAUACCGAGGAUAUUCAUAUAAUACAUGAGGAUCACCCAUGUUAAAUAGGCGAAAGCCUUGGGAGAAGGCGGAAUGCUAC [Xeonanis - 20 Mod66] (Eterna round: R96, puzzle: Same State NG 2)
5. GAGCCAGUCCGAGGAUAUUCGUAGUAACACAUGAGGAUCACCCAUGUGGGCUCAGAAGAGCCCUUGGAGAAGGCGGGCUGGCUC [SS-NG2-LRO19] (Eterna round: R96, puzzle: Same State NG 2)

Return:
1: 564 nM; 2: 50.2 nM; 3: 632 nM; 4: 17.1 nM; 5: 12.4 nM

Okay, here is my list. What is apparent KD of MS2 coat protein for each of these?
1. AGCCGAAGCGCAGGAUAUACAUGCACACAUGAGGAUCACCCAUGUGGCAACACGUGGUAGUGAUUGUAGAAGGGUGCUCGGCGC [Omei SS(NG)2 Cv16] (Eterna round: R96, puzzle: Same State NG 2)
2. GGAGCCGGCCUAGGAUAUUUCAUAAUAAUACAUGAGGAUCACCCAUGUAGGCCAGAAGGCCUUGGGAAGAAGGAGGUCGGCUCC [Loop Effect - U26,U29] (Eterna round: R96, puzzle: Same State NG 2)
3. UGGUACAUGGGAGGAUAUCAUGUAGAAACAUGAGGAUCACCCAUGUAGUUGGCAGCUUUGCUGAAUGAGAAGGCCCAUGUACCU [JL SSNG1 3.59] (Eterna round: R96, puzzle: Same State NG 2)
4. CGUCCAGCCUGAGCUGGACAAAAGCAUGUACAUGAGGAUCACCCAUGUUCAUGUACAAGCUUUUUGCUCGUCUUAGC [salish99_208a_r3_075] (Eterna round: R96, puzzle: Sensor for hsa-mir-208a)
5. GUGGUCUGACAUGAGGAUCACCCAUGUGGAAUAAAUAAGGGUUAGGAUAUCUUGAGGAUCACCCAAGAGAAGGGAUGGUUGGUG (Eterna round: R96, puzzle: Same State NG 3)

Return:
51 nM
43.2 nM
26.7 nM
616 nM
124 nM

====

Can you tell me apparent KD of MS2 coat protein for the items I'm about to list?
Tested on: MS2 coat protein
Experiment: apparent KD of MS2 coat protein; designed switch direction (-1 OFF switch, 1 ON switch): -1; higher = weaker reporter binding
Recorded conditions: Eterna round: R95; input ligand: microRNA oligo, concentration not stated
I'd appreciate it if you wrote the number followed by its unit.

CUUUUGUGAGGAUAUUAGUAGUAAAUAAAUAAAAUUACUACUGAGAAGGCACAUGAGGAUCACCCAUGUUCCUC [salish99_ex4_r3_041] (puzzle: Exclusion 4); 34.6 nM
AUACCACGAGGAUAUCGUCUCUCCCACAUGAGGAUCACCCAUGUUAUCCAUGUUUCGUUUCGAGAAGGCGUGGGUU [JR_E5_Sub072] (puzzle: Exclusion 5); 58.7 nM
ACAGGUUAAGGAUAUACAUGAGGAUCACCCAUGUCGAGUAUCUUGUCAUGCCGCCCAUGUAGAAGGUAACAUGG [Geale] (puzzle: Exclusion 3); 14.3 nM
CUUUUGUGAGGAUAUCAGUAGUAAAAUAAUAAAAUUACUACUGAGAAGGCACAUGAGGAUCACCCAUGUUCCUC [salish99_ex4_r3_019] (puzzle: Exclusion 4); 36.4 nM

Moving on to the next sequence.
Enquiry: Find the measured apparent KD of MS2 coat protein: item GGCCCUAAGGUCAGAUCCACAAGCUUUUUGCUCGUUUUAACAUGAGGAUCACCCAUGUCUAGUGGAUCUGAUCCUCU [Sensor v3, turn-off variant 2 (MOD of Indiso v.4)] (puzzle: Sensor v3, turn-off variant 2) , target or system MS2 coat protein.
Return: 15.4 nM

====

Test system: K4 kissing-loop RNA reporter;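 note: bound reporter read as fluorescence of individual clusters on recovered sequencing chips by microscopy, with normalized cluster intensities fitted with a binding model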
Experiment: apparent KD of K4 kissing-loop reporter; higher = weaker reporter binding
Recorded conditions: Eterna round: R107; input ligand: none
Readout: apparent KD of K4 kissing-loop reporter
Remember to quote the unit after the number.

AGGUACAAAAGUACCGCUAGAUCCACGGAAGGAGCGCCGGAAACGGCAGGUAGGUCGCCGGGCAGUGAUGUUGCCGGAUCUAGCA [Omei KL Arginine A SS A v4]; 231 nM
AACGCUGCCUGAGGAUAUAGAAACGAGUGAUGUUCGUGGAACGAGACCAGUGAUGUUGGCCUAUUUCUAGAAGGCAGGCAACCGC [Exclusion FMN B GF 1]; 148 nM

Please find the next sequence below.
Enquiry: For the sequence shown here, AACUCUCAGAUACUUGAGUGAUGUUCAGGCCGAGGACCGGUACGGCCGCCACUCGGGUCUGAGAGAGGUUAUCAAAGAUAGCCAA [Omei KL Tryp A SS A v10] , give the reported apparent KD of K4 kissing-loop reporter.
Return: 257 nM
